# tested.target: DRB1*1501 (Homo sapiens, UniProt P01903+P01911)
# protocol.details: biochemical
# Assay type: binding
pIC50: −log10 of the molar value. No end group written: not given here.
Classes by pIC50: low-valued (below 5), mid-valued (5 to below 6), high-valued (6 or more)

INSERT INTO assay_data (seq, group_label) VALUES
  ('SRVIVCPTSIPSDQI [Peptide 90.0027]', 'low-valued'),
  ('ISEVMGDTPEWIQRL [Peptide 90.0052]', 'mid-valued'),
  ('AQEVHNDAQVLHVLK [Peptide 90.0047]', 'mid-valued'),
  ('HWKLIRMECAIMYTA [Peptide 90.0021]', 'mid-valued'),
  ('TPEWIQRLTIIQHGI [Peptide 89.0030]', 'low-valued'),
  ('RFHNIMGRWTGRCSE [Peptide 1543.60]', 'high-valued'),
  ('DFLNTVKIPNTVSVS [Peptide 1601.28]', 'mid-valued'),
  ('AFQVIELQMALETLN [Peptide 90.0024]', 'high-valued'),
  ('LLEFIDDSMENSIQA [Peptide 90.0077]', 'mid-valued'),
  ('DRGIIILLLIRFRCS [Peptide 89.0062]', 'low-valued'),
  ('NKALQAIELQLTLET [Peptide 89.0151]', 'low-valued'),
  ('VHEGIRTYFVQFKDD [Peptide 1601.05]', 'high-valued'),
  ('QRFHNIRGRWTGRCM [Peptide 1543.27]', 'low-valued'),
  ('NTEVETQQMVQVEEQ [Peptide 89.0039]', 'low-valued'),
  ('LKRFLQGIPKKNCIL [Peptide 89.0016]', 'mid-valued');

====

# tested.target: A2.1 HLA molecules (Homo sapiens, UniProt P04439, D140Y/D185E/D98H/E176V/E277Q/G131W/G231S/I119V/I121R/I166T/I218V/L300P/L318F/N151K/N90K/P208A/P217A/Q86G/Q94H/R138H/R169H/T345S)
# Assay type: binding
# Parameters: scale not given here
Decision: A2.1 Binding compared against 0.0001; not below it gives T, below it gives F.

INSERT INTO assay_data (substance, group_label) VALUES
  ('PLRVTPSDL', 'F'),
  ('1.0876 (FLCILLLCL) [Peptide 1.0876]', 'T'),
  ('NLEVIHDAL', 'F'),
  ('TLNIVRDHV', 'T'),
  ('1.0187 (HLLVGSSBL) [Peptide 1.0187]', 'T'),
  ('WLKLLRDAL', 'F'),
  ('DMLGRVFFV', 'T'),
  ('E7.86/1088.01 (TLGIVCPI)', 'T'),
  ('LLWWITILL', 'T'),
  ('PLAYERDKL', 'F'),
  ('ALLLVLALL', 'T'),
  ('FLRVQQKAL', 'T'),
  ('E6.29/1088.10 (TIHDIILECV)', 'T'),
  ('TLAA MHYSKL (TLAAMHYSKL)', 'T'),
  ('VLARTFTPV', 'T'),
  ('E7.85/1088.08 (GTLGIVCPI)', 'T');

====

# tested.target: DRB5*0101 (Homo sapiens, UniProt P01903+Q30154)
# protocol.details: biochemical
# conditions: Binding affinity DRB5 *0101
pIC50: −log10 of the molar value. No end group written: not given here.
observation.type: pIC50

INSERT INTO assay_data (seq, comparative_sign, test_value) VALUES
  ('CMLIQPPKLRSTAAA [Peptide 89.0047]', '=', 6.04),
  ('DFLNTVKIPNTVSVS [Peptide 1601.28]', '<', 4.70),
  ('RETIEKLLSKLLCVS [Peptide 89.0006]', '=', 5.15),
  ('PEWIQRLTIIQHGID [Peptide 89.0031]', '=', 6.62),
  ('ELQMALKGLAQSKYN [Peptide 90.0005]', '=', 6.32),
  ('TVEVQFDGDICNTMH [Peptide 90.0167]', '<', 4.70),
  ('GQVIVCPTSISSNQI [Peptide 89.0185]', '=', 5.60),
  ('RDSVDSAPILTAFNS [Peptide 89.0156]', '<', 4.70),
  ('NHQVVPALSVSKAKA [Peptide 89.0168]', '<', 4.70),
  ('SEIYIIEETTCTLVA [Peptide 90.0250]', '<', 4.70),
  ('QQQMFLGTVKIPPTV [Peptide 89.0187]', '<', 4.70),
  ('QRFHNIRGRWTGRCM [Peptide 1543.27]', '=', 6.04),
  ('ISEVYGDTPEWIQRQ [Peptide 90.0035]', '<', 4.70),
  ('PEWIDRLTVLQHSFN [Peptide 89.0070]', '<', 4.70),
  ('DSEIAYKYAQLADSD [Peptide 89.0051]', '<', 4.70),
  ('SADDLRAFQQLFLNT [Peptide 1543.07]', '<', 4.70),
  ('TPEWIQRQTVLQHSF [Peptide 89.0010]', '=', 5.39),
  ('LSQVKIPKTITVSTG [Peptide 89.0158]', '<', 4.70),
  ('IIHLKGDANILKCLR [Peptide 90.0197]', '=', 5.61),
  ('LIRMECALLYTAKQM [Peptide 89.0179]', '<', 4.70),
  ('PTGCLKKHGYTVEVQ [Peptide 1601.23]', '<', 4.70),
  ('GKSYFGMSLIHFLKG [Peptide 89.0146]', '<', 4.70),
  ('AFQVIELQMALETLS [Peptide 89.0181]', '=', 5.77),
  ('LMQLKCPPLLITSNI [Peptide 89.0057]', '<', 4.70),
  ('QSTQVDIRILQELLM [Peptide 1543.11]', '<', 4.70),
  ('QKCFKKKGITVTVQY [Peptide 90.0026]', '<', 4.70),
  ('GKSYFGMSLIQFLKG [Peptide 89.0075]', '=', 6.39),
  ('ACSWGMVMLMLVRFK [Peptide 89.0043]', '=', 5.25),
  ('YRHYQYSLYGKTLEE [Peptide 1543.58]', '=', 6.19),
  ('RREVYDFAFRDLCIV [Peptide 1543.25]', '=', 4.70),
  ('WKLIRMECAIMYTAR [Peptide 90.0245]', '=', 5.91),
  ('NCILLYGAANTGKSL [Peptide 89.0017]', '=', 6.35),
  ('EYILDLHPEPTDLFC [Peptide 1543.51]', '<', 4.70),
  ('VTAIFGVNPTIAEGF [Peptide 89.0023]', '<', 4.70),
  ('SRVIVCPTSIPSDQI [Peptide 90.0027]', '<', 4.70),
  ('NTTPIIHLKGDKNSL [Peptide 1601.37]', '<', 4.70),
  ('EVQIALESLSTTIYN [Peptide 90.0231]', '<', 4.70),
  ('SEVYDFVFADLRIVY [Peptide 1543.48]', '=', 5.63),
  ('LDHYENDSKDINSQI [Peptide 1601.29]', '<', 4.70),
  ('DHDITDDSDIAYKYA [Peptide 90.0117]', '=', 5.17),
  ('CQAIELQLALEALNK [Peptide 90.0014]', '=', 5.72),
  ('CWNYIDDNLRNALDG [Peptide 90.0041]', '<', 4.70),
  ('NTEVETQQMLQVEGR [Peptide 89.0002]', '<', 4.70),
  ('LLEFIDDSMENSIQA [Peptide 90.0077]', '<', 4.70),
  ('ETHMVIEPPKLRSAT [Peptide 89.0103]', '=', 5.54),
  ('FLDVVTIPNSVQISV [Peptide 1601.40]', '<', 4.70),
  ('RHLDKKQRFHNIRGR [Peptide 1543.26]', '=', 5.24),
  ('LKVLIQPYSIYAHLQ [Peptide 89.0098]', '=', 6.00),
  ('EVHVGGQVIVCPTSI [Peptide 89.0184]', '<', 4.70),
  ('QMMLETLNNTEYKNE [Peptide 1601.22]', '<', 4.70),
  ('DNDVMDDSEIAYKYA [Peptide 90.0069]', '<', 4.70),
  ('DRGVLILLLIRFKCG [Peptide 89.0099]', '=', 7.08);

====

Each entry below lists one item and its recorded log10 of IC50 value.
# tested.target: HLA-A11 (A*1101) (Homo sapiens, UniProt P04439, A114D/D185E/E176A/F33Y/L180Q/S129P/T187R)
# protocol.details: biochemical
# Type: binding
No end group written: not given here.
observation.type: log10 of IC50 (log10 of the value in nM)

INSERT INTO measurements (seq, test_value) VALUES
  ('QVVPALSVSK [Peptide 1589.13]', 1.40),
  ('FTAFLGAFKK [Peptide 88.0168]', 1.40),
  ('GSQPKTACNK [Peptide 9017.0202]', 1.48),
  ('AQIEHWKLTR [Peptide 88.0226]', 1.80),
  ('KAILGQVVR [Peptide 9017.0092]', 3.73),
  ('HLFGYSYYK [Peptide 76.0191]', 0.43),
  ('SFFQNLQVIR [Peptide 9012.0232]', 3.60),
  ('RLKAICIEK [Peptide 1587.01]', 2.72),
  ('SFFSRTWCK [Peptide 88.0363]', 1.20),
  ('VTIKIGGQIR [Peptide 1516.05]', 2.59),
  ('KLFLKGVPK [Peptide 1587.41]', 1.23),
  ('HLFDYSWYK [Peptide 76.0165]', 0.00),
  ('LLRAVRIIK [Peptide 9017.0069]', 3.31),
  ('VSIEWRKRR [Peptide 9017.0090]', 1.89),
  ('RVHSSHLKSKK [Peptide 1556.75]', 1.30),
  ('LQQLLFIHFR [Peptide 9017.0241]', 1.76),
  ('VTIYYGVPVWR [Peptide 1525.04]', 0.48),
  ('TFWNPPTTAR [Peptide 1556.02]', 3.18),
  ('ATTPIIHLK [Peptide 1589.18]', 0.88),
  ('KQLCDLLIR [Peptide 1513.14]', 3.23),
  ('ITYSDETQR [Peptide 88.0429]', 2.22),
  ('KSFLKGTPK [Peptide 88.0344]', 1.36),
  ('KQEAVRHFPR [Peptide 9017.0239]', 2.60),
  ('QLALEALNK [Peptide 88.0424]', 2.19),
  ('VTVYDGVPVWK [Peptide 1539.09]', 1.28),
  ('TLSAELPK [Peptide 1556.24]', 2.01),
  ('VTIKIGGQIK [Peptide 1516.02]', 2.26),
  ('QVVPAYNISK [Peptide 1589.06]', 1.18);
